- experimentNotes: inhibitors of HIV fusion peptide binding, primary screen, biochemical, uHTS, fluorescence dequenching (AID 1986)
- recordedConditions: cell-free peptide binding, 30 min, at 20 µM, stronger effect = higher value
Hit rate of the full screen: of about 290,000 compounds, about 890 (0.31%) were called active. The full list was thinned out, with actives kept by preference.
Please enter yes (1) where inhibition is greater than or equal to 20%, and no (0) where it is lower.

For orientation, consider the following solved cases.
INSERT INTO assay_data (molecule, classification) VALUES
  ('O=C(NN1C(=O)/C(=C/C=C/c2ccco2)SC1=S)c1ccccc1O', 'yes (1)'),
  ('O=C(NN1C(=O)/C(=C/C=C/c2ccccc2)SC1=S)c1ccncc1', 'no (0)'),
  ('CC(C)C(C(=O)O)N1C(=O)/C(=C/C=C/c2ccco2)SC1=S (stereo unspecified)', 'yes (1)'),
  ('O=C(CSc1nc2scc(-c3ccco3)c2c(=O)n1-c1ccccc1)N1CCOCC1', 'no (0)'),
  ('O=C(O)C(Cc1ccccc1)N1C(=O)/C(=C/c2cccnc2)SC1=S (stereo unspecified)', 'no (0)');

Pending molecule:
stdin: Decide: inhibition of O=[N+]([O-])c1ccc2c(c1)oc1ccccc12 >= 20%?
stdout: no (0)

* * *

Known inhibition of a selection of compounds
- experimentNotes: inhibitors of HIV fusion peptide binding, primary screen, biochemical, uHTS, fluorescence dequenching (AID 1986)
- recordedConditions: cell-free peptide binding, 30 min, at 20 µM, stronger effect = higher value
Among all 290,000 compounds or so, about 890 (0.31%) were called active. Only a selection was taken, and actives are over-represented in it overall.
Report the value in % with no unit label.

INSERT INTO results (compound, unitspec, recordednumber) VALUES
  ('Cc1c(C(=O)NN)sc(=S)n1C', '%', -1.3);

stdin: What inhibition value was documented for this compound, COc1ccccc1NC(=O)c1ccc(-c2nn(C)c(=O)c3ccccc23)cc1 ?
stdout: 0.7

stdin: What inhibition value was documented for this compound, O=C(CN1c2ccccc2S(=O)(=O)c2ccccc21)NCc1ccccc1 ?
stdout: -0.5

* * *

- experimentNotes: inhibitors of HIV fusion peptide binding, primary screen, biochemical, uHTS, fluorescence dequenching (AID 1986)
- recordedConditions: cell-free peptide binding, 30 min, measured here: repeat confirmation average inhibition, at 18.6 µM, stronger effect = higher value
In all, about 290,000 compounds went through this assay and about 890 (0.31%) were called active. What follows is part of a selection rich in actives, with near analogues and random picks from the rest.
observationType: inhibition (%)
Report the value in % with no unit label.

Known results for compounds:
INSERT INTO results (compound, observationtype, recordednumber) VALUES
  ('COc1ccccc1N1C(=O)C2C(C(=O)c3ccccc3)=NN(c3ccccc3)C2C1=O (stereo unspecified)', 'inhibition', 33.6),
  ('CCOc1cc(/C=C2\C(=O)ON=C2c2ccccc2)cc(Br)c1O', 'inhibition', 108),
  ('O=C(O)c1ccccc1N/N=C/c1c(Sc2nnnn2-c2ccccc2)nc2ccccn2c1=O', 'inhibition', 54.8),
  ('COc1cc(/C=C2\SC(=Nc3ccccc3)NC2=O)cc(Cl)c1O', 'inhibition', 60.8),
  ('CCOc1cc(/C=C2/C(=O)ON=C2C)cc(Br)c1O', 'inhibition', 51.8),
  ('CC(C)(C)OC(=O)CN1C(=O)S/C(=C\c2ccc(-c3cccc(C(=O)O)c3)o2)C1=O', 'inhibition', 40.6),
  ('CCN1CCN(c2c(/C=C3\SC(=S)N(Cc4ccco4)C3=O)c(C)c(C#N)c(=O)n2C)CC1', 'inhibition', 167),
  ('COc1cc(/C=C2/C(=O)NN(c3cccc(Cl)c3)C2=O)cc(OC)c1O', 'inhibition', 80.5),
  ('COc1cc(/C=C2\C(=O)ON=C2c2ccccc2)cc(Br)c1O', 'inhibition', 106),
  ('COc1cc(/C=C2/SC(=S)N(Cc3ccccc3)C2=O)cc(Cl)c1O', 'inhibition', 88);

stdin: What inhibition value was documented for this compound, O=C1C(=Cc2cccn2-c2ccccc2)C(=O)c2ccccc21 ?
stdout: 28.2

stdin: What inhibition value was documented for this compound, CN(C)c1ccc(/C=C2\CCC/C(=C\c3ccccc3)C2=O)cc1 ?
stdout: 70.4

* * *

- experimentNotes: inhibitors of HIV fusion peptide binding, primary screen, biochemical, uHTS, fluorescence dequenching (AID 1986)
- recordedConditions: cell-free peptide binding, 30 min, at 20 µM
Screen size: about 290,000 compounds; about 890 (0.31%) were called active. No stated cut-off is given here; in the data, active means inhibition mostly above about 52% (no sharp cut-off); inactive means mostly below about 76%. This is one part of a sample in which actives are shown more often than they occur.
Tick one outcome: 1 (active), 0 (inactive)

INSERT INTO measurements (compound, classification) VALUES
  ('COC(=O)c1ccc2c(c1)C(C)(C)C(/C=C/c1ccc(OC)c(OC)c1OC)=[N+]2C', 0),
  ('Nc1ccc2nc(SCc3ccc([N+](=O)[O-])cc3)sc2c1', 0),
  ('Cc1onc(-c2ccccc2Cl)c1C(=O)Nc1ccc(Br)cc1', 0),
  ('COc1ccc(/C=N/Nc2nc3ccccc3s2)cc1O', 0),
  ('O=C(NN=C1CCCC1)c1ccc(Cl)cc1', 0);

stdin: Identify the outcome logged in this assay for the compound shown: CS(=O)(=O)N(CC(=O)Nc1ccccc1C(=O)N1CCCC1)c1ccccc1Br
stdout: 0

stdin: Identify the outcome logged in this assay for the compound shown: COC(=O)c1ccc2c(c1)C(C)(C)C(/C=C/c1ccccc1O)=[N+]2C
stdout: 0

stdin: Identify the outcome logged in this assay for the compound shown: Nc1c(C(=O)NCC2CCCO2)sc2nc3c(c(-c4ccco4)c12)CC/C3=C\c1ccco1 (configuration not stated)
stdout: 1

stdin: Identify the outcome logged in this assay for the compound shown: O=C(Nc1ccn(Cc2ccccc2F)n1)c1ccc(COc2ccc(Br)cc2)cc1
stdout: 0

* * *

- experimentNotes: inhibitors of HIV fusion peptide binding, primary screen, biochemical, uHTS, fluorescence dequenching (AID 1986)
- recordedConditions: cell-free peptide binding, 30 min, measured here: repeat confirmation average inhibition, at 18.6 µM, stronger effect = higher value
Hit rate of the full screen: of about 290,000 compounds, about 890 (0.31%) were called active. Shown is part of a subset that was picked to be rich in actives.
Please enter Yes where inhibition is greater than or equal to 60%, and No where it is lower.

INSERT INTO results (compound, classification) VALUES
  ('O=C1/C(=C/c2ccc(N3CCCC3)cc2)NC(=S)N1C1CC1', 'Yes'),
  ('CCSC1=N/C(=C\C=C2/Oc3ccccc3N2CC)C(=O)S1', 'Yes'),
  ('COc1ccccc1-n1c(C)cc(/C=C2/C(=N)N3C(=NC2=O)SN=C3S(C)(=O)=O)c1C', 'No'),
  ('N#Cc1c2nc3ccccc3nc2n2cc(NC(=O)c3ccc(F)cc3)ccc12', 'No'),
  ('N#CC1=C(N)OC2=C(CC/C2=C\c2ccc(F)cc2)C1c1ccc(F)cc1 (stereo not given)', 'No');

stdin: Decide: inhibition of Cc1cc(/C=C2/C(=N)N3C(=NC2=O)SN=C3S(C)(=O)=O)c(C)n1-c1ccc(F)cc1 >= 60%?
stdout: No

stdin: Decide: inhibition of CCOC(=O)/C(C#N)=C\C=C1C=CN(C)C=C1 >= 60%?
stdout: No

* * *

- experimentNotes: inhibitors of HIV fusion peptide binding, primary screen, biochemical, uHTS, fluorescence dequenching (AID 1986)
- recordedConditions: cell-free peptide binding, 30 min, at 20 µM, stronger effect = higher value
The campaign covered roughly 290,000 compounds. About 890 (0.31%) were called active. For the sample, actives were picked, then their nearest neighbours and some compounds at random.
observationType: inhibition

stdin: What inhibition value was documented for this compound, COc1ccc(CNC(=O)[C@@H](NC(=O)C2CCN(C(=O)[C@@H](N)Cc3ccccc3)CC2)C(C)C)cc1 ?
stdout: -1.9% (inactive)

stdin: What inhibition value was documented for this compound, COc1cc(N2CCCC2)c(OC)cc1/C=C1/NC(=S)NC1=O ?
stdout: 121% (active)

stdin: What inhibition value was documented for this compound, N#C/C(=C\c1ccco1)c1nc2ccccc2s1 ?
stdout: 146% (inactive)

stdin: What inhibition value was documented for this compound, COc1cc(N2CCCC2)c(OC)cc1/C=c1/sc2nc3ccccc3n2c1=O ?
stdout: -3.3% (inactive)

stdin: What inhibition value was documented for this compound, COc1ccccc1/C=C/C(=O)NCC(=O)n1nc(C)cc1C ?
stdout: 0.9% (inactive)

* * *

- experimentNotes: inhibitors of HIV fusion peptide binding, primary screen, biochemical, uHTS, fluorescence dequenching (AID 1986)
- recordedConditions: cell-free peptide binding, 30 min, at 20 µM, stronger effect = higher value
Hit rate of the full screen: of about 290,000 compounds, about 890 (0.31%) were called active. The sample as a whole holds a higher share of actives than the screen did.
Known inhibition of a selection of compounds
Report the value in % with no unit label.

Known results for compounds:
INSERT INTO results (compound, recordednumber) VALUES
  ('CCCCN1C(=O)/C(=C/C=C2\Oc3ccccc3N2CC)SC1=S', 149),
  ('Cc1nnsc1-c1nc2ccccc2[nH]1', -1.6),
  ('CC(C)CNC(=O)c1cccc(NC(=O)c2ccco2)c1', -0.6),
  ('Cc1cc(C)n2nc(C(F)(F)F)c(-c3ccccc3)c2n1', 0.5);

stdin: What inhibition value was documented for this compound, CCSC1=N/C(=C\C=C2/Oc3ccccc3N2CC)C(=O)S1 ?
stdout: 109

stdin: What inhibition value was documented for this compound, COC(=O)c1cc(S(=O)(=O)NCCc2ccc(Cl)cc2)c[nH]1 ?
stdout: 1.3

These measurements were taken from PubChem BioAssay AID1986.
